Quick reference for log10 IC50 among some compounds
System: human colon carcinoma HT-29 cells
Assay: XTT cell proliferation assay, HT-29
Format: cell-based
Settings: HT-29, XTT, as Example 13, Table 7
property.measured: log10 IC50 (log10 of the value in µg/mL)

compound	log10 IC50
CC(C)(C)c1[nH]c2ccc(F)cc2c1-c1nc2c3cccnc3c3ncccc3c2[nH]1 [Compound 65]	-0.46
CC(C)(C)c1[nH]c2c(F)cccc2c1-c1nc2c3cccnc3c3ncccc3c2[nH]1 [Compound 88]	-0.42
COc1ccc2c(c1)c(-c1nc3c4cccnc4c4ncccc4c3[nH]1)cn2C(C)C [Compound 54]	-0.55
Cc1ccc(C)c2c(-c3nc4c5cccnc5c5ncccc5c4[nH]3)c(C34CC5CC(CC(C5)C3)C4)[nH]c12 [Compound 70]	-0.46
CC(C)c1ccc2[nH]c(C(C)(C)C)c(-c3nc4c5cccnc5c5ncccc5c4[nH]3)c2c1 [Compound 61]	-0.40
c1ccc2c(-c3nc4c5cccnc5c5ncccc5c4[nH]3)c(C3CCCCC3)[nH]c2c1 [Compound 80]	-0.38
Cc1ccccc1-c1[nH]c2ccc(C(C)(C)C)cc2c1-c1nc2c3cccnc3c3ncccc3c2[nH]1 [Compound 74]	-0.74
O=C(Cn1cc(-c2nc3c4cccnc4c4ncccc4c3[nH]2)c2ccccc21)N1CCCCCC1 [Compound 45]	0.85
c1ccc2c(-c3nc4c5cccnc5c5ncccc5c4[nH]3)c[nH]c2c1 [Compound 1]	0.30
Cn1c(-c2ccccc2)c(-c2nc3c4cccnc4c4ncccc4c3[nH]2)c2ccccc21 [Compound 18]	-0.43
Cc1ccc(Cl)c2c(-c3nc4c5cccnc5c5ncccc5c4[nH]3)c(C(C)(C)C)[nH]c12 [Compound 85]	-0.62
CC(C)(C)c1[nH]c2ccc(-c3ccccc3)cc2c1-c1nc2c3cccnc3c3ncccc3c2[nH]1 [Compound 68]	-0.47
CC(C)(C)c1[nH]c2ccc(Br)cc2c1-c1nc2c3cccnc3c3ncccc3c2[nH]1 [Compound 87]	-0.38
CCc1cccc2c(-c3nc4c5cccnc5c5ncccc5c4[nH]3)c(C(C)(C)C)[nH]c12 [Compound 64]	-0.82
CC(C)(C)c1[nH]c2ccccc2c1-c1nc2c3cccnc3c3ncccc3c2[nH]1 [Compound 39]	-0.35

* * *

Test system: KLF4
Test: KLF4 gene expression by RT-PCR, CCRF-CEM
Assay type: cell-based, human
Details: relative to vehicle control as 1
From the text: Gene expression levels of KLF4, induced by compounds of Formula I, were also examined on various cancer cell types by RT-PCR. Fold changes in KLF4 in compound-treated cells were expressed relative to KLF4 expression in vehicle control-treated cells of respective cell type as “1”. […]

molecule.smiles	KLF4 (gene fold increase)
Cc1[nH]c2ccc(F)cc2c1-c1nc2c3cccnc3c3ncccc3c2[nH]1	48.5 fold
Cc1ccc2[nH]c(C34CC5CC(CC(C5)C3)C4)c(-c3nc4c5cccnc5c5ncccc5c4[nH]3)c2c1	74.29 fold
Cc1[nH]c2ccccc2c1-c1nc2c3cccnc3c3ncccc3c2[nH]1	28.05 fold
CCc1cccc2c(-c3nc4c5cccnc5c5ncccc5c4[nH]3)c(C(C)(C)C)[nH]c12	73.77 fold
CC(C)(C)c1ccc2[nH]c(C(C)(C)C)c(-c3nc4c5cccnc5c5ncccc5c4[nH]3)c2c1	76.37 fold

* * *

Quick reference for IC50 among some molecules
Test system: human colon carcinoma HT-29 cells
Test: XTT cell proliferation assay, HT-29
Format: cell-based
Conditions: Homo sapiens; HT-29, XTT, as Example 13, Table 7; read-out: IC50
property.measured: IC50 (µg/mL)

molecule.smiles	property.measured	qual	value.measured
Cc1[nH]c2ccc(Cl)cc2c1-c1nc2c3cccnc3c3ncccc3c2[nH]1	IC50	=	0.35
c1ccc2c(-c3nc4c5cccnc5c5ncccc5c4[nH]3)c(CN3CCCCC3)[nH]c2c1	IC50	=	0.28
Cc1[nH]c2ccccc2c1-c1nc2c3cccnc3c3ncccc3c2[nH]1	IC50	=	0.6
Fc1ccc2[nH]cc(-c3nc4c5cccnc5c5ncccc5c4[nH]3)c2c1	IC50	=	3.5
c1ccc(-c2[nH]c3ccccc3c2-c2nc3c4cccnc4c4ncccc4c3[nH]2)cc1	IC50	=	0.3
COc1ccc2[nH]c(C)c(-c3nc4c5cccnc5c5ncccc5c4[nH]3)c2c1	IC50	=	1.4
Cc1[nH]c2ccc(F)cc2c1-c1nc2c3cccnc3c3ncccc3c2[nH]1	IC50	=	0.7
c1ccc2c(-c3nc4c5cccnc5c5ncccc5c4[nH]3)c(-c3ccncc3)[nH]c2c1	IC50	>	2.5
Fc1ccc(-c2[nH]c3ccccc3c2-c2nc3c4cccnc4c4ncccc4c3[nH]2)cc1	IC50	=	0.18
Cc1[nH]c2ccc(O)cc2c1-c1nc2c3cccnc3c3ncccc3c2[nH]1	IC50	>	25
Brc1ccc2[nH]cc(-c3nc4c5cccnc5c5ncccc5c4[nH]3)c2c1	IC50	=	1.5

* * *

System: KLF4
Assay: KLF4 gene expression by RT-PCR, SK-MEL-2
Type: cell-based, human
Details: SK-MEL-2, relative to vehicle control as 1
Quick reference for KLF4 (gene fold increase) among some compounds
property.measured: KLF4 (gene fold increase)

molecule.smiles	tested.on	property.measured	value.measured
Cc1ccc2[nH]c(C34CC5CC(CC(C5)C3)C4)c(-c3nc4c5cccnc5c5ncccc5c4[nH]3)c2c1	KLF4	KLF4 (gene fold increase)	4 fold
Cc1[nH]c2ccc(F)cc2c1-c1nc2c3cccnc3c3ncccc3c2[nH]1	KLF4	KLF4 (gene fold increase)	3.32 fold
CC(C)(C)c1ccc2[nH]c(C(C)(C)C)c(-c3nc4c5cccnc5c5ncccc5c4[nH]3)c2c1	KLF4	KLF4 (gene fold increase)	5.46 fold
CCc1cccc2c(-c3nc4c5cccnc5c5ncccc5c4[nH]3)c(C(C)(C)C)[nH]c12	KLF4	KLF4 (gene fold increase)	5.35 fold
Cc1[nH]c2ccccc2c1-c1nc2c3cccnc3c3ncccc3c2[nH]1	KLF4	KLF4 (gene fold increase)	2.38 fold

* * *

Test system: human colon carcinoma HT-29 cells
Assay: XTT cell proliferation assay, HT-29
Format: cell-based
Conditions: Homo sapiens; HT-29, XTT, 6-7 days, Table 3; read-out: IC50

molecule.smiles	tested.on	qual	IC50 (nM)
Brc1ccc2[nH]cc(-c3nc4c5cccnc5c5ncccc5c4[nH]3)c2c1	human colon carcinoma HT-29 cells	=	700
Cc1[nH]c2ccccc2c1-c1nc2c3cccnc3c3ncccc3c2[nH]1	human colon carcinoma HT-29 cells	=	600
c1ccc2c(-c3nc4c5cccnc5c5ncccc5c4[nH]3)c(-c3ccncc3)[nH]c2c1	human colon carcinoma HT-29 cells	>	2500
Cc1[nH]c2ccc(F)cc2c1-c1nc2c3cccnc3c3ncccc3c2[nH]1	human colon carcinoma HT-29 cells	=	700
c1ccc2c(-c3nc4c5cccnc5c5ncccc5c4[nH]3)c(CN3CCCCC3)[nH]c2c1	human colon carcinoma HT-29 cells	=	280
Fc1ccc(-c2[nH]c3ccccc3c2-c2nc3c4cccnc4c4ncccc4c3[nH]2)cc1	human colon carcinoma HT-29 cells	=	180
COc1ccc2[nH]c(C)c(-c3nc4c5cccnc5c5ncccc5c4[nH]3)c2c1	human colon carcinoma HT-29 cells	=	1400
Cc1[nH]c2ccc(Cl)cc2c1-c1nc2c3cccnc3c3ncccc3c2[nH]1	human colon carcinoma HT-29 cells	=	350
c1ccc(-c2[nH]c3ccccc3c2-c2nc3c4cccnc4c4ncccc4c3[nH]2)cc1	human colon carcinoma HT-29 cells	=	300

* * *

Quick reference for IC50 among some compounds
Test system: DU-145 prostate cancer cells
Experiment: XTT cell proliferation assay, DU-145
Type: cell-based, human
Settings: Homo sapiens, read-out: IC50 (cell growth inhibition)
property.measured: IC50 (nM)

compound	property.measured	endpoint.unit	value.measured
Cc1[nH]c2ccc(F)cc2c1-c1nc2c3cccnc3c3ncccc3c2[nH]1 [Compound 7]	IC50	nM	220
Cc1[nH]c2ccccc2c1-c1nc2c3cccnc3c3ncccc3c2[nH]1 [Compound 3]	IC50	nM	350

* * *

System: human colon carcinoma HT-29 cells
Assay: XTT cell proliferation assay, HT-29
Format: cell-based
Settings: HT-29, XTT, as Example 13, Table 7
Procedure: The ability of compounds of Formula I to inhibit the proliferation of human colon carcinoma HT-29 cells was tested as follows. […] The in vitro antiproliferative activity of compounds was evaluated by incubating the cells with varying concentrations of the compounds as shown in Table 1 for 6-7 days. […]

compound	qual	IC50 (µg/mL)
Cc1ccc(F)c2c(-c3nc4c5cccnc5c5ncccc5c4[nH]3)c(C(C)(C)C)[nH]c12 [Compound 83]	=	0.1
Clc1ccc(-c2[nH]c3ccccc3c2-c2nc3c4cccnc4c4ncccc4c3[nH]2)cc1 [Compound 42]	=	0.31
Cc1c(-c2nc3c4cccnc4c4ncccc4c3[nH]2)c2ccccc2n1CC(=O)N1CCCCC1 [Compound 57]	=	5
Cc1c(-c2nc3c4cccnc4c4ncccc4c3[nH]2)c2cc(F)ccc2n1Cc1ccccc1 [Compound 77]	=	0.24
c1ccc2c(c1)c(-c1nc3c4cccnc4c4ncccc4c3[nH]1)cn2C1CCCC1 [Compound 53]	=	0.19
Cc1[nH]c2ccc([N+](=O)[O-])cc2c1-c1nc2c3cccnc3c3ncccc3c2[nH]1 [Compound 38]	=	3.5
Cc1ccc2[nH]c(C34CC5CC(CC(C5)C3)C4)c(-c3nc4c5cccnc5c5ncccc5c4[nH]3)c2c1 [Compound 69]	=	0.2
c1ccc2c(-c3nc4c5cccnc5c5ncccc5c4[nH]3)c(C34CC5CC(CC(C5)C3)C4)[nH]c2c1 [Compound 78]	=	0.38
Cc1c(-c2nc3c4cccnc4c4ncccc4c3[nH]2)c2ccccc2n1CC(=O)N1CCCCCC1 [Compound 56]	=	5
CC(C)(C)c1[nH]c2ccc(C#N)cc2c1-c1nc2c3cccnc3c3ncccc3c2[nH]1 [Compound 71]	=	3
CC(C)(C)c1[nH]c2c(F)cc(F)cc2c1-c1nc2c3cccnc3c3ncccc3c2[nH]1 [Compound 66]	=	0.4
CC(C)c1[nH]c2ccc(F)cc2c1-c1nc2c3cccnc3c3ncccc3c2[nH]1 [Compound 82]	=	0.61
Cc1c(-c2nc3c4cccnc4c4ncccc4c3[nH]2)c2ccccc2n1CC(=O)N1CCC(C)CC1 [Compound 55]	=	2.4
O=C(Cn1cc(-c2nc3c4cccnc4c4ncccc4c3[nH]2)c2ccccc21)N1CCCCC1 [Compound 47]	=	5
Cc1cccc2c(-c3nc4c5cccnc5c5ncccc5c4[nH]3)c(C(C)(C)C)[nH]c12 [Compound 62]	<	0.1
Cc1cc(Cl)cc2c(-c3nc4c5cccnc5c5ncccc5c4[nH]3)c(C(C)(C)C)[nH]c12 [Compound 84]	=	0.39
CCc1ccc2[nH]c(C(C)(C)C)c(-c3nc4c5cccnc5c5ncccc5c4[nH]3)c2c1 [Compound 86]	=	0.47
CC(C)(C)c1ccc2[nH]c(C(C)(C)C)c(-c3nc4c5cccnc5c5ncccc5c4[nH]3)c2c1 [Compound 63]	=	0.2
CC(C)c1[nH]c2ccccc2c1-c1nc2c3cccnc3c3ncccc3c2[nH]1 [Compound 79]	=	0.65
Cn1c(N2CCOCC2)c(-c2nc3c4cccnc4c4ncccc4c3[nH]2)c2ccccc21 [Compound 59]	=	0.6
CC(C)n1cc(-c2nc3c4cccnc4c4ncccc4c3[nH]2)c2ccccc21 [Compound 52]	=	0.19
CC1CCCC(C)N1C(=O)Cn1cc(-c2nc3c4cccnc4c4ncccc4c3[nH]2)c2ccccc21 (stereo not shown) [Compound 50]	=	2.3
CC1CCN(C(=O)Cn2cc(-c3nc4c5cccnc5c5ncccc5c4[nH]3)c3ccccc32)CC1 [Compound 51]	=	5
Fc1ccc2[nH]c(C34CC5CC(CC(C5)C3)C4)c(-c3nc4c5cccnc5c5ncccc5c4[nH]3)c2c1 [Compound 72]	=	0.18
CC(C)(C)c1ccc2[nH]c(C3CCCC3)c(-c3nc4c5cccnc5c5ncccc5c4[nH]3)c2c1 [Compound 73]	=	0.22
O=S(=O)(c1ccc2[nH]c(Cl)c(-c3nc4c5cccnc5c5ncccc5c4[nH]3)c2c1)N1CCOCC1 [Compound 75]	>	25
c1ccc2c(-c3nc4c5cccnc5c5ncccc5c4[nH]3)c(C3CCCC3)[nH]c2c1 [Compound 81]	=	0.4
